# Test system: HeLa Kyoto
# PROTOCOL_TEXT: solubility in G1/S (NP-40 vs SDS abundance) (log2 ratio); higher = more soluble
# CONDITION_CONTEXT: cell cycle stage: G1/S
READOUT_TYPE: solubility in G1/S (log2)

The examples below pair each entry with its known result.
SUBSTANCE	RESULT
MKLLTHNLLSSHVRGVGSRGFPLRLQATEVRICPVEFNPNFVARMIPKVEWSAFLEAADNLRLIQVPKGPVEGYEENEEFLRTMHHLLLEVEVIEGTLQCPESGRMFPISRGIPNMLLSEEETES [TRMT112]	0.323
MREYKVVVLGSGGVGKSALTVQFVTGTFIEKYDPTIEDFYRKEIEVDSSPSVLEILDTAGTEQFASMRDLYIKNGQGFILVYSLVNQQSFQDIKPMRDQIVRVKRYEKVPLILVGNKVDLEPEREVMSSEGRALAQEWGCPFMETSAKSKSMVDELFAEIVRQMNYSSLPEKQDQCCTTCVVQ [RAP2C]	0.0732
MEGISNFKTPSKLSEKKKSVLCSTPTINIPASPFMQKLGFGTGVNVYLMKRSPRGLSHSPWAVKKINPICNDHYRSVYQKRLMDEAKILKSLHHPNIVGYRAFTEANDGSLCLAMEYGGEKSLNDLIEERYKASQDPFPAAIILKVALNMARGLKYLHQEKKLLHGDIKSSNVVIKGDFETIKICDVGVSLPLDENMTVTDPEACYIGTEPWKPKEAVEENGVITDKADIFAFGLTLWEMMTLSIPHINLSNDDDDEDKTFDESDFDDEAYYAALGTRPPINMEELDESYQKVIELFSVCTNEDPKDRPSAAHIVEALETDV [PBK]	0.0996
MEAPEGGGGGPAARGPEGQPAPEARVHFRVARFIMEAGVKLGMRSIPIATACTIYHKFFCETNLDAYDPYLIAMSSIYLAGKVEEQHLRTRDIINVSNRYFNPSGEPLELDSRFWELRDSIVQCELLMLRVLRFQVSFQHPHKYLLHYLVSLQNWLNRHSWQRTPVAVTAWALLRDSYHGALCLRFQAQHIAVAVLYLALQVYGVEVPAEVEAEKPWWQVFNDDLTKPIIDNIVSDLIQIYTMDTEIP [FAM58A]	-0.46
MDILKSEILRKRQLVEDRNLLVENKKYFKRSELAKKEEEAYFERCGYKIQPKEEDQKPLTSSNPVLELELAEEKLPMTLSRQEVIRRLRERGEPIRLFGETDYDAFQRLRKIEILTPEVNKGLRNDLKAALDKIDQQYLNEIVGGQEPGEEDTQNDLKVHEENTTIEELEALGESLGKGDDHKDMDIITKFLKFLLGVWAKELNAREDYVKRSVQGKLNSATQKQTESYLRPLFRKLRKRNLPADIKESITDIIKFMLQREYVKANDAYLQMAIGNAPWPIGVTMVGIHARTGREKIFSKHVAHVLNDETQRKYIQGLKRLMTICQKHFPTDPSKCVEYNAL [PRPF18]	0.178
PIKFYVE	-0.0952

Task item: # lookup: solubility in G1/S (log2) of MTALSARMLTRSRSLGPGAGPRGCREEPGPLRRREAAAEARKSHSPVKRPRKAQRLRVAYEGSDSEKGEGAEPLKVPVWEPQDWQQQLVNIRAMRNKKDAPVDHLGTEHCYDSSAPPKVRRYQVLLSLMLSSQTKDQVTAGAMQRLRARGLTVDSILQTDDATLGKLIYPVGFWRSKVKYIKQTSAILQQHYGGDIPASVAELVALPGVGPKMAHLAMAVAWGTVSGIAVDTHVHRIANRLRWTKKATKSPEETRAALEEWLPRELWHEINGLLVGFGQQTCLPVHPRCHACLNQALCPAAQGL [NTHL1]
Reply: 0.0579

Task item: # lookup: solubility in G1/S (log2) of MSSPPEGKLETKAGHPPAVKAGGMRIVQKHPHTGDTKEEKDKDDQEWESPSPPKPTVFISGVIARGDKDFPPAAAQVAHQKPHASMDKHPSPRTQHIQQPRK [DAP]
Reply: -0.1

Task item: # lookup: solubility in G1/S (log2) of MGIQTSPVLLASLGVGLVTLLGLAVGSYLVRRSRRPQVTLLDPNEKYLLRLLDKTTVSHNTKRFRFALPTAHHTLGLPVGKHIYLSTRIDGSLVIRPYTPVTSDEDQGYVDLVIKVYLKGVHPKFPEGGKMSQYLDSLKVGDVVEFRGPSGLLTYTGKGHFNIQPNKKSPPEPRVAKKLGMIAGGTGITPMLQLIRAILKVPEDPTQCFLLFANQTEKDIILREDLEELQARYPNRFKLWFTLDHPPKDWAYSKGFVTADMIREHLPAPGDDVLVLLCGPPPMVQLACHPNLDKLGYSQKMRFTY [CYB5R1]
Reply: 0.339

Task item: # lookup: solubility in G1/S (log2) of MANIAVQRIKREFKEVLKSEETSKNQIKVDLVDENFTELRGEIAGPPDTPYEGGRYQLEIKIPETYPFNPPKVRFITKIWHPNISSVTGAICLDILKDQWAAAMTLRTVLLSLQALLAAAEPDDPQDAVVANQYKQNPEMFKQTARLWAHVYAGAPVSSPEYTKKIENLCAMGFDRNAVIVALSSKSWDVETATELLLSN [UBE2K]
Reply: 0.332

Task item: # lookup: solubility in G1/S (log2) of MELGSCLEGGREAAEEEGEPEVKKRRLLCVEFASVASCDAAVAQCFLAENDWEMERALNSYFEPPVEESALERRPETISEPKTYVDLTNEETTDSTTSKISPSEDTQQENGSMFSLITWNIDGLDLNNLSERARGVCSYLALYSPDVIFLQEVIPPYYSYLKKRSSNYEIITGHEEGYFTAIMLKKSRVKLKSQEIIPFPSTKMMRNLLCVHVNVSGNELCLMTSHLESTRGHAAERMNQLKMVLKKMQEAPESATVIFAGDTNLRDREVTRCGGLPNNIVDVWEFLGKPKHCQYTWDTQMNSNLGITAACKLRFDRIFFRAAAEEGHIIPRSLDLLGLEKLDCGRFPSDHWGLLCNLDIIL [TDP2]
Reply: 0.116

Task item: # lookup: solubility in G1/S (log2) of MASDEGKLFVGGLSFDTNEQSLEQVFSKYGQISEVVVVKDRETQRSRGFGFVTFENIDDAKDAMMAMNGKSVDGRQIRVDQAGKSSDNRSRGYRGGSAGGRGFFRGGRGRGRGFSRGGGDRGYGGNRFESRSGGYGGSRDYYSSRSQSGGYSDRSSGGSYRDSYDSYATHNE [CIRBP]
Reply: -0.000215

---

# Tested on: HeLa Kyoto
# PROTOCOL_TEXT: solubility change mitosis vs G1/S (difference of NP-40 vs SDS log2 ratios) (log2 ratio difference); higher = more soluble in mitosis
Tag: 1.0 if measured solubility change mitosis (log2) is not below 0.2, 0.0 if it is.

Study these solved cases before continuing.
SEQ	LABEL_CLASS
MLPLSIKDDEYKPPKFNLFGKISGWFRSILSDKTSRNLFFFLCLNLSFAFVELLYGIWSNCLGLISDSFHMFFDSTAILAGLAASVISKWRDNDAFSYGYVRAEVLAGFVNGLFLIFTAFFIFSEGVERALAPPDVHHERLLLVSILGFVVNLIGIFVFKHGGHGHSHGSGHGHSHSLFNGALDQAHGHVDHCHSHEVKHGAAHSHDHAHGHGHFHSHDGPSLKETTGPSRQILQGVFLHILADTLGSIGVIASAIMMQNFGLMIADPICSILIAILIVVSVIPLLRESVGILMQRTPPLLENSLPQCYQRVQQLQGVYSLQEQHFWTLCSDVYVGTLKLIVAPDADARWILSQTHNIFTQAGVRQLYVQIDFAAM [SLC30A7]	0.0
MAALTLRGVRELLKRVDLATVPRRHRYKKKWAATEPKFPAVRLALQNFDMTYSVQFGDLWPSIRVSLLSEQKYGALVNNFAAWDHVSAKLEQLSAKDFVNEAISHWELQSEGGQSAAPSPASWACSPNLRCFTFDRGDISRFPPARPGSLGVMEYYLMDAASLLPVLALGLQPGDIVLDLCAAPGGKTLALLQTGCCRNLAANDLSPSRIARLQKILHSYVPEEIRDGNQVRVTSWDGRKWGELEGDTYDRVLVDVPCTTDRHSLHEEENNIFKRSRKKERQILPVLQVQLLAAGLLATKPGGHVVYSTCSLSHLQNEYVVQGAIELLANQYSIQVQVEDLTHFRRVFMDTFCFFSSCQVGELVIPNLMANFGPMYFCKMRRLT [NSUN4]	0.0
MAAAAVSGALGRAGWRLLQLRCLPVARCRQALVPRAFHASAVGLRSSDEQKQQPPNSFSQQHSETQGAEKPDPESSHSPPRYTDQGGEEEEDYESEEQLQHRILTAALEFVPAHGWTAEAIAEGAQSLGLSSAAASMFGKDGSELILHFVTQCNTRLTRVLEEEQKLVQLGQAEKRKTDQFLRDAVETRLRMLIPYIEHWPRALSILMLPHNIPSSLSLLTSMVDDMWHYAGDQSTDFNWYTRRAMLAAIYNTTELVMMQDSSPDFEDTWRFLENRVNDAMNMGHTAKQVKSTGEALVQGLMGAAVTLKNLTGLNQRR [COQ9]	1.0
MMEDDGQPRTLYVGNLSRDVTEVLILQLFSQIGPCKSCKMITEHTSNDPYCFVEFYEHRDAAAALAAMNGRKILGKEVKVNWATTPSSQKKDTSNHFHVFVGDLSPEITTEDIKSAFAPFGKISDARVVKDMATGKSKGYGFVSFYNKLDAENAIVHMGGQWLGGRQIRTNWATRKPPAPKSTQENNTKQLRFEDVVNQSSPKNCTVYCGGIASGLTDQLMRQTFSPFGQIMEIRVFPEKGYSFVRFSTHESAAHAIVSVNGTTIEGHVVKCYWGKESPDMTKNFQQVDYSQWGQWSQVYGNPQQYGQYMANGWQVPPYGVYGQPWNQQGFGVDQSPSAAWMGGFGAQPPQGQAPPPVIPPPNQAGYGMASYQTQ [TIAL1]	0.0
MTTSQKHRDFVAEPMGEKPVGSLAGIGEVLGKKLEERGFDKAYVVLGQFLVLKKDEDLFREWLKDTCGANAKQSRDCFGCLREWCDAFL [BANF1]	1.0

Task item: Check if solubility change mitosis (log2) >= 0.2 (inclusive). Item: MDGEEQQPPHEANVEPVVPSEASEPVPRVLSGDPQNLSDVDAFNLLLEMKLKRRRQRPNLPRTVTQLVAEDGSRVYVVGTAHFSDDSKRDVVKTIREVQPDVVVVELCQYRVSMLKMDESTLLREAQELSLEKLQQAVRQNGLMSGLMQMLLLKVSAHITEQLGMAPGGEFREAFKEASKVPFCKFHLGDRPIPVTFKRAIAALSFWQKVRLAWGLCFLSDPISKDDVERCKQKDLLEQMMAEMIGEFPDLHRTIVSERDVYLTYMLRQAARRLELPRASDAEPRKCVPSVVVGVVGMGHVPGIEKNWSTDLNIQEIMTVPPPSVSGRVSRLAVKAAFFGLLGYSLYWMGRRTASLVLSLPAAQYCLQRVTEARHK [TRABD]
Reply: 0.0

Task item: Check if solubility change mitosis (log2) >= 0.2 (inclusive). Item: MRQKHYLEAAARGLHDSCPGQARYLLWAYTSSHDDKSTFEETCPYCFQLLVLDNSRVRLKPKARLTPKIQKLLNREARNYTLSFKEAKMVKKFKDSKSVLLITCKTCNRTVKHHGKSRSFVSTLKSNPATPTSKLSLKTPERRTANPNHDMSGSKGKSPASVFRTPTSGQSVSTCSSKNTSKTKKHFSQLKMLLSQNESQKIPKVDFRNFLSSLKGGLLK [C18ORF21]
Reply: 1.0

Task item: Check if solubility change mitosis (log2) >= 0.2 (inclusive). Item: MSAEVKVTGQNQEQFLLLAKSAKGAALATLIHQVLEAPGVYVFGELLDMPNVRELAESDFASTFRLLTVFAYGTYADYLAEARNLPPLTEAQKNKLRHLSVVTLAAKVKCIPYAVLLEALALRNVRQLEDLVIEAVYADVLRGSLDQRNQRLEVDYSIGRDIQRQDLSAIARTLQEWCVGCEVVLSGIEEQVSRANQHKEQQLGLKQQIESEVANLKKTIKVTTAAAAAATSQDPEQHLTELREPAPGTNQRQPSKKASKGKGLRGSAKIWSKSN [COPS7A]
Reply: 1.0

Task item: Check if solubility change mitosis (log2) >= 0.2 (inclusive). Item: MAAETRNVAGAEAPPPQKRYYRQRAHSNPMADHTLRYPVKPEEMDWSELYPEFFAPLTQNQSHDDPKDKKEKRAQAQVEFADIGCGYGGLLVELSPLFPDTLILGLEIRVKVSDYVQDRIRALRAAPAGGFQNIACLRSNAMKHLPNFFYKGQLTKMFFLFPDPHFKRTKHKWRIISPTLLAEYAYVLRVGGLVYTITDVLELHDWMCTHFEEHPLFERVPLEDLSEDPVVGHLGTSTEEGKKVLRNGGKNFPAIFRRIQDPVLQAVTSQTSLPGH [METTL1]
Reply: 0.0

Task item: Check if solubility change mitosis (log2) >= 0.2 (inclusive). Item: MAAAVAAAGAGEPQSPDELLPKGDAEKPEEELEEDDDEELDETLSERLWGLTEMFPERVRSAAGATFDLSLFVAQKMYRFSRAALWIGTTSFMILVLPVVFETEKLQMEQQQQLQQRQILLGPNTGLSGGMPGALPSLPGKI [TOMM22]
Reply: 1.0
